Biological target: HLA-A*29:02
Test: IEDB peptide-MHC binding, purified MHC/competitive/fluorescence; filed as Kd, often an IC50 or EC50 that approximates it; bounds were set here for any values at or beyond the usual limits of such assays
Conditions: source organism: Coxiella burnetii RSA 331
pKd: −log10 of the molar value.
measurement kind: pKd

INSERT INTO results (entry_sequence, value_measured) VALUES
  ('VGGDIRTLY', 7.16);

###

Target: HLA-B*58:01
Test: IEDB peptide-MHC binding, purified MHC/direct/fluorescence; filed as Kd, often an IC50 or EC50 that approximates it; bounds were set here for any values at or beyond the usual limits of such assays
Conditions: source organism: Mammarenavirus juninense
pKd: −log10 of the molar value.
measurement kind: pKd

INSERT INTO assay_data (entry_sequence, measured_target, measurement_kind, value_measured) VALUES
  ('FMNAVGHDW', 'HLA-B*58:01', 'pKd', 7.15);

###

Target: HLA-A*24:02
Assay: IEDB peptide-MHC binding, purified MHC/competitive/fluorescence; bounds were set here for any values at or beyond the usual limits of such assays
Conditions: source organism: Homo sapiens
measurement kind: IC50 (nM)

INSERT INTO measurements (entry_sequence, value_measured) VALUES
  ('YFYYNAFHWAI', 1130);

###

Let's look at some sequences and their measured pKd.
Target: HLA-A*03:01
Assay: IEDB peptide-MHC binding, purified MHC/competitive/radioactivity; filed as Kd, often an IC50 or EC50 that approximates it; bounds were set here for any values at or beyond the usual limits of such assays
Settings: source organism: Vaccinia virus WR
pKd: −log10 of the molar value.
measurement kind: pKd

INSERT INTO assay_data (entry_sequence, bound_sign, value_measured) VALUES
  ('CLEWLRAKRK', '=', 6.00),
  ('STDNAVYQCR', '=', 5.24),
  ('SVLCVKKFYK', '=', 8.94),
  ('IANSNIIKNK', '=', 7.33),
  ('WVSLKKTNDK', '=', 5.68),
  ('SMGFKVTTRR', '=', 7.01),
  ('KAEMQLKIDK', '=', 5.43),
  ('LSARNKLFKR', '≤', 4.15),
  ('PADCFLVKLK', '=', 5.54),
  ('KSINKVYGRY', '=', 5.58),
  ('YLIHDNIMY', '=', 4.97),
  ('QTVDFTDCR', '≤', 4.45),
  ('LSKRERQLAK', '=', 5.87),
  ('YIVHSYLKNY', '≤', 4.15),
  ('SVNEYHMLK', '=', 8.21),
  ('EIIFLKLFKK', '=', 7.05),
  ('IFMRDWNSK', '=', 4.93),
  ('LLIWAYLSKK', '=', 7.38),
  ('TISKDNLER', '=', 5.58),
  ('NLKAMLYIIR', '=', 5.07),
  ('RTMPNESRVK', '=', 7.60);

###

Molecular target: HLA-C*04:01
Assay: IEDB peptide-MHC binding, purified MHC/direct/fluorescence; filed as Kd, often an IC50 or EC50 that approximates it; bounds were set here for any values at or beyond the usual limits of such assays
Details: source organism: Giardia lamblia ATCC 50803
pKd: −log10 of the molar value.
measurement kind: pKd

INSERT INTO assay_data (entry_sequence, measured_target, value_measured) VALUES
  ('YWLNTPFLV', 'HLA-C*04:01', '≤ 4.70');

###

Biological target: HLA-A*11:01
Test: IEDB peptide-MHC binding, purified MHC/competitive/radioactivity; filed as Kd, often an IC50 or EC50 that approximates it; bounds were set here for any values at or beyond the usual limits of such assays
Details: source organism: Dengue virus 3 Martinique/1243/1999
pKd: −log10 of the molar value.
measurement kind: pKd

INSERT INTO measurements (entry_sequence, value_measured) VALUES
  ('TANPVVTKK', 6.61);

###

Target: HLA-A*02:19
Test: IEDB peptide-MHC binding, purified MHC/direct/fluorescence; filed as Kd, often an IC50 or EC50 that approximates it; bounds were set here for any values at or beyond the usual limits of such assays
Settings: source organism: Mycobacterium tuberculosis str. Haarlem
measurement kind: Kd

INSERT INTO results (entry_sequence, value_measured) VALUES
  ('MAVTAAPYI', '≥ 20 µM');

###

Biological target: HLA-A*03:01
Assay: IEDB peptide-MHC binding, purified MHC/direct/fluorescence; filed as Kd, often an IC50 or EC50 that approximates it; bounds were set here for any values at or beyond the usual limits of such assays
Conditions: source organism: Zaire ebolavirus
measurement kind: Kd

INSERT INTO results (entry_sequence, measurement_kind, value_measured) VALUES
  ('QFLSFASLF', 'Kd', '≥ 20 µM'),
  ('QTEPKTSVV', 'Kd', '≥ 20 µM'),
  ('NYNGLLSSI', 'Kd', '≥ 20 µM');

###

Biological target: HLA-A*69:01
Assay: IEDB peptide-MHC binding, purified MHC/direct/fluorescence; filed as Kd, often an IC50 or EC50 that approximates it; bounds were set here for any values at or beyond the usual limits of such assays
Conditions: source organism: West Nile virus
pKd: −log10 of the molar value.
measurement kind: pKd

INSERT INTO results (entry_sequence, measured_target, measurement_kind, value_measured) VALUES
  ('HSRRSRRSL', 'HLA-A*69:01', 'pKd', '≤ 4.70');

###

Target: HLA-B*18:01
Experiment: IEDB peptide-MHC binding, purified MHC/direct/fluorescence; filed as Kd, often an IC50 or EC50 that approximates it; bounds were set here for any values at or beyond the usual limits of such assays
Details: source organism: Orthohantavirus hantanense
measurement kind: Kd (nM)

INSERT INTO results (entry_sequence, measured_target, measurement_kind, value_measured) VALUES
  ('IEADIEHFL', 'HLA-B*18:01', 'Kd', 58.8);

###

Target: HLA-A*02:11
Assay: IEDB peptide-MHC binding, purified MHC/direct/fluorescence; filed as Kd, often an IC50 or EC50 that approximates it; bounds were set here for any values at or beyond the usual limits of such assays
Conditions: source organism: Yersinia pestis CA88-4125
pKd: −log10 of the molar value.
measurement kind: pKd

INSERT INTO assay_data (entry_sequence, value_measured) VALUES
  ('QQRPDLILV', '≤ 4.70');

###

Target: HLA-B*08:01
Test: IEDB peptide-MHC binding, purified MHC/competitive/fluorescence; bounds were set here for any values at or beyond the usual limits of such assays
Settings: source organism: Homo sapiens
pIC50: −log10 of the molar value.
measurement kind: pIC50

INSERT INTO measurements (entry_sequence, measured_target, measurement_kind, value_measured) VALUES
  ('YFYYNAFHWAI', 'HLA-B*08:01', 'pIC50', '≤ 4.70');

###

This section presents sequences with their documented pKd values.
Biological target: HLA-A*30:02
Test: IEDB peptide-MHC binding, purified MHC/competitive/radioactivity; filed as Kd, often an IC50 or EC50 that approximates it; bounds were set here for any values at or beyond the usual limits of such assays
Details: source organism: SARS coronavirus Tor2
pKd: −log10 of the molar value.
measurement kind: pKd

INSERT INTO results (entry_sequence, bound_sign, value_measured) VALUES
  ('CTPPALNCY', '=', 5.32),
  ('LSNFGAPSY', '=', 8.75),
  ('LTKGTLEPEY', '=', 6.27),
  ('YYQLESTQI', '≤', 4.09),
  ('VSVKMFDAY', '=', 6.19),
  ('MMSAPPAEY', '=', 9.95),
  ('HSVGFDYVY', '=', 7.92),
  ('NMVYMPASW', '≤', 4.01),
  ('QYGSFCTQL', '≤', 4.03),
  ('EYADVFHLYL', '=', 5.87);

###

Target: HLA-A*30:01
Assay: IEDB peptide-MHC binding, purified MHC/competitive/radioactivity; filed as Kd, often an IC50 or EC50 that approximates it; bounds were set here for any values at or beyond the usual limits of such assays
Details: source organism: Vaccinia virus WR
pKd: −log10 of the molar value.
Overview of recorded pKd for various sequences
measurement kind: pKd

INSERT INTO assay_data (entry_sequence, measurement_kind, value_measured) VALUES
  ('HIKNDFMIK', 'pKd', 8.80),
  ('TLRAAMISL', 'pKd', 9.15),
  ('MSRRYSREK', 'pKd', 8.88),
  ('KVFDKSLLY', 'pKd', 7.15);

###

Measured IC50 by item
Target: HLA-A*02:01
Experiment: IEDB peptide-MHC binding, purified MHC/competitive/fluorescence; bounds were set here for any values at or beyond the usual limits of such assays
Conditions: source organism: Zaire ebolavirus
measurement kind: IC50

INSERT INTO assay_data (entry_sequence, value_measured) VALUES
  ('VNPEIDTTI', '≥ 358 µM'),
  ('THNTPVYKL', '≥ 735 µM'),
  ('GVAGLITGG', '≥ 77 µM'),
  ('SRFTPQFLL', '≥ 106 µM'),
  ('RGVRLHPLA', '≥ 87.8 µM'),
  ('VQLESRFTP', '≥ 197 µM'),
  ('PRCRYVHKV', '≥ 3070 µM'),
  ('QFLSFASLF', '≥ 88.1 µM'),
  ('KVQRQIQVH', '≥ 214 µM'),
  ('ATGFGTNET', '≥ 393 µM'),
  ('ATTELRTFS', '≥ 202 µM'),
  ('SFKAALSSL', '≥ 358 µM');
